These measurements were taken from patent US8420853B2.

- System: mouse melanoma B-16 cells
- assayMethodText: Inhibitory effect on melanin synthesis
- Assay type: cell-based
- conditionDescription: Mus musculus, B16, 72 h; concentration 5 ug/ml, B-16 cells cultured 3 days, vs control group
readoutName: inhibition at 5 µg/mL (%)
Express it in %; write the number only.

Briefly, inhibition at 5 µg/mL measured for CCCCC(CC)C(=O)Oc1cc2ccccc2cc1OC(=O)C(CC)CCCC (centres unmarked) : 29

Briefly, inhibition at 5 µg/mL measured for CCCCCCCCCCCC(=O)O[C@@H]1CCCC[C@H]1OC(=O)CCCCCCCCCCC (relative stereo) : 9

Briefly, inhibition at 5 µg/mL measured for CCCCCCCC(=O)O[C@@H]1CCC[C@H]1OC(=O)CCCCCCC (relative stereo) : 30

Briefly, inhibition at 5 µg/mL measured for CCCCCCCC(=O)Oc1cc2ccccc2cc1OC(=O)CCCCCCC : 39

Others:
Briefly, inhibition at 5 µg/mL measured for CCCCCCCC(=O)OC1CCCC(OC(=O)CCCCCCC)C1OC(=O)CCCCCCC (centres unmarked) : 39

Briefly, inhibition at 5 µg/mL measured for CCCCCOC1CCCCC1OCCCCC (centres unmarked) : 22

Briefly, inhibition at 5 µg/mL measured for CCCCCCCCCC(=O)O[C@@H]1CCCC[C@H]1OC(=O)CCCCCCCCC (relative stereo) : 19

Briefly, inhibition at 5 µg/mL measured for CC(C)=CC(=O)Oc1ccccc1OC(=O)C=C(C)C : 15

###

- Tested on: mouse melanoma B-16 cells
- assayMethodText: Inhibitory effect on melanin synthesis
- Type: cell-based
- conditionDescription: Mus musculus, B16, 72 h; concentration 5 ug/ml, B-16 cells cultured 3 days, vs control group
readoutName: inhibition at 5 µg/mL (%)
Express it in %; write the number only.

Field: example entries. Status: answers known.
Briefly, inhibition at 5 µg/mL measured for CC(C)=CC(=O)O[C@@H]1CCC[C@H]1OC(=O)C=C(C)C (relative stereo) [Example 12] : 27

Briefly, inhibition at 5 µg/mL measured for CCCCC(CC)C(=O)O[C@@H]1CCCC[C@H]1OC(=O)C(CC)CCCC (relative stereo) [Example 7] : 42

Briefly, inhibition at 5 µg/mL measured for C=CCCC(=O)O[C@@H]1CCCC[C@H]1OC(=O)CCC=C (relative stereo) [Example 15] : 39

Briefly, inhibition at 5 µg/mL measured for CCCCCCCCC(=O)O[C@@H]1CCCC[C@H]1OC(=O)CCCCCCCC (relative stereo) [Example 8] : 21

Briefly, inhibition at 5 µg/mL measured for CCCCCCCC(=O)Oc1ccccc1OC(=O)CCCCCCC [Example 17, octanoic acid 2-octanoyloxy-phenyl ester] : 9

Others:
Briefly, inhibition at 5 µg/mL measured for CC(C)=CC(=O)O[C@H]1CCCC[C@H]1OC(=O)C=C(C)C [Example 11] : 31

Briefly, inhibition at 5 µg/mL measured for CCCCC(=O)O[C@@H]1CCCC[C@H]1OC(=O)CCCC (relative stereo) [Example 2] : 45

Briefly, inhibition at 5 µg/mL measured for CCCCCCC(=O)O[C@@H]1CCCC[C@H]1OC(=O)CCCCCC (relative stereo) [Example 5] : 35

Briefly, inhibition at 5 µg/mL measured for CCCCCCCC(=O)Oc1cccnc1OC(=O)CCCCCCC [Example 21] : 48

Briefly, inhibition at 5 µg/mL measured for CCCCCCCC(=O)O[C@@H]1CCCC[C@H]1OC(=O)CCCCCCC (relative stereo) [Example 6] : 30

###

- Tested on: mouse melanoma B-16 cells
- assayMethodText: Inhibitory effect on melanin synthesis
- Assay type: cell-based
- conditionDescription: concentration 5 ug/ml, B-16 cells cultured 3 days, vs control group
readoutName: Melanin synthesis inhibition (%)
Express it in %; write the number only.

Field: example entries. Status: answers known.
Briefly, Melanin synthesis inhibition (%) measured for CC(C)CCOC1CCCCC1OCCC(C)C (centres unmarked) [Example 28, 1,2-bis-(3-methyl-buthoxy)-cyclohexane] : 25

Briefly, Melanin synthesis inhibition (%) measured for CCCC(=O)OC[C@H]1O[C@H](OC)[C@H](OC(=O)CCC)[C@@H](OC(=O)CCC)[C@@H]1OC(=O)CCC [Example 27, methyl-alpha-D-glucose tetra-O-butanoate] : 29

Briefly, Melanin synthesis inhibition (%) measured for CCCC(=O)OC1C(OC(=O)CCC)C(OC(=O)CCC)C(OC(=O)CCC)C(OC(=O)CCC)C1OC(=O)CCC (centres unmarked) [Example 25, myo-inositol hexa-O-butanoate] : 27

Then there is this compound:
Briefly, Melanin synthesis inhibition (%) measured for CC(C)=CC(=O)OC1OC[C@@H](OC(=O)C=C(C)C)[C@@H](OC(=O)C=C(C)C)[C@@H]1OC(=O)C=C(C)C (some centres unmarked) [Example 26] : 31

###

Measured inhibition at 5 µg/mL values are reported for all entries that follow.
- System: mouse melanoma B-16 cells
- assayMethodText: Inhibitory effect on melanin synthesis
- Assay type: cell-based
- conditionDescription: Mus musculus, B16, 72 h; concentration 5 ug/ml, B-16 cells cultured 3 days, vs control group
Express it in %; write the number only.

Briefly, inhibition at 5 µg/mL measured for CC(C)=CC(=O)O[C@@H]1CCCC[C@H]1OC(=O)C=C(C)C (relative stereo) : 39

Briefly, inhibition at 5 µg/mL measured for CC(C)=CC(=O)OC1COCC1OC(=O)C=C(C)C (centres unmarked) : 27

Others:
Briefly, inhibition at 5 µg/mL measured for CCCCCCOC1CCCCC1OCCCCCC (centres unmarked) : 18

Briefly, inhibition at 5 µg/mL measured for CC(C)=CC(=O)Oc1cc2ccccc2cc1OC(=O)C=C(C)C : 47

Briefly, inhibition at 5 µg/mL measured for CCCCCC(=O)O[C@@H]1CCCC[C@H]1OC(=O)CCCCC (relative stereo) : 41

Briefly, inhibition at 5 µg/mL measured for CCCC(=O)O[C@@H]1CCCC[C@H]1OC(=O)CCC (relative stereo) : 30

Briefly, inhibition at 5 µg/mL measured for CCCCCCCCOC1CCCCC1OCCCCCCCC (centres unmarked) : 15

Briefly, inhibition at 5 µg/mL measured for CCCCC(CC)C(=O)O[C@@H]1CCC[C@H]1OC(=O)C(CC)CCCC (relative stereo) : 31
